tested on: ACHN; assay: NCI tumour cell line growth inhibition, 48 h
Active and inactive are the calls of the source. No stated cut-off is given here; in the data, active = GI50 up to about 1.1 µM and inactive = higher.
Kindly supply the reported GI50 values for the records listed here.

Which GI50 is listed for COc1ccc(-n2cnc3c(NC(CCSC)C(=O)O)ncnc32)cc1 (stereo not drawn) ?
> 100 µM (inactive)

Which GI50 is listed for CS(=O)(=O)OCCN1CCC2(CC1)SSC1(CCN(CCOS(C)(=O)=O)CC1)S2 ?
33.5 µM (inactive)

Which GI50 is listed for COc1cc(CNc2cnc3cc(N)ccc3n2)cc(OC)c1OC ?
66.1 µM (inactive)

----------
test system: CCRF-CEM; test: NCI tumour cell line growth inhibition, 48 h
Calls of active or inactive are those of the source. No stated cut-off is given here; in the data, active = GI50 up to about 1.1 µM and inactive = higher.
Response enum: T (active), F (inactive)

Could you kindly confirm the outcome this assay logged for ClC1(Cl)C2CCOC21n1cnc2ccccc21 (configuration not stated) ?
F

Could you kindly confirm the outcome this assay logged for CCC1(c2ccc(N3C(=O)c4cccc5cc([N+](=O)[O-])cc(c45)C3=O)cc2)CCC(=O)NC1=O (configuration not stated) ?
F

Could you kindly confirm the outcome this assay logged for Cc1ccccc1C(=O)NC(O)(C(F)(F)F)C(F)(F)F ?
F

Could you kindly confirm the outcome this assay logged for COCCNC1CCC2(SCCS2)c2[nH]c3ccccc3c21 (configuration not stated) ?
F

Could you kindly confirm the outcome this assay logged for CCOC(=O)NC(=O)c1cn(CCN(CCO)C(=O)NCCCCCCNC(=O)N(CCO)CCn2cc(C(=O)NC(=O)OCC)c(=O)[nH]c2=O)c(=O)[nH]c1=O ?
F

Could you kindly confirm the outcome this assay logged for COc1ccc2c(c1)NC1(CCN(CCCC(=O)c3ccc(F)cc3)CC1)N=N2 ?
F

Could you kindly confirm the outcome this assay logged for Cn1c(O)c(C(=O)NC2CCCCC2)c(=O)n(C)c1=S ?
F

Could you kindly confirm the outcome this assay logged for Cc1ccc(S(=O)(=O)N2c3ccccc3[C@H]3CCC=C[C@H]32)cc1 ?
F

Could you kindly confirm the outcome this assay logged for N#CC1=C2SCCN2C(=O)C(C#N)C12CCCCC2 (configuration not stated) ?
F

Could you kindly confirm the outcome this assay logged for C=C(C)[C@@H]1CC[C@@H](C)[C@](O)([C@@H]2C[C@@H]([C@H](COC(=O)c3ccccc3)OC(=O)c3ccccc3)OC2=O)C1 ?
F

Could you kindly confirm the outcome this assay logged for COC(=O)/C=C(\S/C=C(/c1ccccc1)N1CCn2c(C(=O)c3ccccc3)c(C(=O)OC)c(C(=O)OC)c21)C(=O)OC ?
T

Could you kindly confirm the outcome this assay logged for Cn1ccc(=NS(=O)(=O)c2ccccc2)cc1 ?
F

----------
tested on: Malme-3M; test: NCI tumour cell line growth inhibition, 48 h
Calls of active or inactive are those of the source. No stated cut-off is given here; in the data, active = GI50 up to about 1.1 µM and inactive = higher.
Response enum: active, inactive

Could you kindly confirm the outcome this assay logged for N/N=c1\[nH]c2ccccc2o1 ?
inactive

Could you kindly confirm the outcome this assay logged for O=C(Cn1ccnc1[N+](=O)[O-])c1ccc(F)cc1 ?
inactive

Could you kindly confirm the outcome this assay logged for COc1cccc(OC)c1C1ON=C(c2ccccc2)N1C12CC3CC(CC(C3)C1)C2 (configuration not stated) ?
inactive

Could you kindly confirm the outcome this assay logged for CC(C)(C)c1cc2c3c(c1)C(C(F)(F)F)(C(F)(F)F)O[Te]3(C)OC2(C(F)(F)F)C(F)(F)F ?
inactive

Could you kindly confirm the outcome this assay logged for C[C@]12CC[C@H](O)C[C@@H]1CC[C@@H]1[C@@H]2CC[C@]2(C)[C@@H](c3cc(C(F)(F)F)[nH]n3)CC[C@@H]12 ?
inactive

Could you kindly confirm the outcome this assay logged for CCCCCCCCCOCC(COP(=O)([O-])OCC[N+](C)(C)C)OC (configuration not stated) ?
inactive

Could you kindly confirm the outcome this assay logged for COC(=O)C(=C\Sc1ccccc1)/C=C/C(=O)OC(C)(C)C ?
inactive

Could you kindly confirm the outcome this assay logged for CNC(c1ccncc1)C(NC)c1ccncc1 (configuration not stated) ?
inactive

Could you kindly confirm the outcome this assay logged for CC(=O)CC(=O)CCC(=O)O [SUCCINYLACETONE] ?
inactive

Could you kindly confirm the outcome this assay logged for N[C@H]1c2c(Br)sc(Br)c2C(=O)[C@H]1O ?
inactive

Could you kindly confirm the outcome this assay logged for N#CC1(C2SCC[S+]2[O-])C2=C(C(=O)c3ccccc3C2=O)N2CCCC21 (configuration not stated) ?
active

Could you kindly confirm the outcome this assay logged for CC(C)N(Cc1ccccc1)S(=O)(=O)c1nc(C(C)(C)C)n[nH]1 ?
inactive
